system: Rattus norvegicus; assay: Analgesic activity for inflamed rat-paw reversal of abnormal (three legged) gait expressed as ED50 (po).; type: functional; conditions: Rattus norvegicus, po; read-out: ED50
# ED50 listing for each entry below

Would you please look over these solved cases?
[[record]]
molecule = "CCOc1ccc(C23CNCC2C3)cc1.Cl (configuration not stated)"
assay_result = "29 mg/kg"

[[record]]
molecule = "Cl.Clc1cccc(C23CNCC2C3)c1 (configuration not stated)"
assay_result = "> 50 mg/kg"


q: Consider the molecule shown here: CCc1ccc(C23CNCC2C3)cc1.Cl (configuration not stated) What is its recorded ED50?
a: 13 mg/kg

q: # lookup: ED50 of CCCCCCc1ccc(C23CNCC2C3)cc1.Cl (configuration not stated)
a: > 50 mg/kg

q: Sample COc1cccc(C23CC2CN(C)C3)c1.Cl (configuration not stated) — what was its ED50?
a: > 100 mg/kg

q: Query: ED50; subject: COc1ccc(C23CNCC2C3)cc1Br.Cl (configuration not stated)
a: > 25 mg/kg

---

tested on: Rattus norvegicus; experiment: Analgesic activity for inflamed rat-paw reversal of abnormal (three legged) gait expressed as ED50 (po).; type: functional; conditions: Rattus norvegicus, po; read-out: ED50
We label by threshold. Values of ED50 strictly beneath 50 mg/kg are TRUE. Values of 50 mg/kg and up are FALSE.

q: Decide: ED50 of Brc1ccc(C23CNCC2C3)cc1.Cl (stereo unspecified) strictly below 50 mg/kg?
a: FALSE

q: Please indicate whether the reported ED50 of Cc1ccc(C23CC2CN(C)C3)cc1.Cl (stereo unspecified) is strictly below 50 mg/kg.
a: TRUE

---

system: Rattus norvegicus; assay: Analgesic activity for inflamed rat-paw reversal of abnormal (three legged) gait expressed as ED50 (po).; assay type: functional; conditions: Rattus norvegicus, po; read-out: ED50
Catalogue of compounds with associated ED50

Worked examples follow.
[[record]]
compound = "CN1CC2CC2(c2cccc(O)c2)C1.Cl (stereo unspecified)"
quantity = "ED50"
assay_result = "> 50 mg/kg"

[[record]]
compound = "CC(C)(C)c1ccc(C23CNCC2C3)cc1.Cl (stereo unspecified)"
quantity = "ED50"
assay_result = "> 200 mg/kg"

[[record]]
compound = "COc1ccc(C23CNCC2C3)cc1.Cl (stereo unspecified)"
quantity = "ED50"
assay_result = "24 mg/kg"


q: Under Rattus norvegicus: ED50 value of Cc1ccccc1C12CNCC1C2.Cl (stereo unspecified) ?
a: > 50 mg/kg

q: Lookup: ED50 / Rattus norvegicus / Cl.Clc1ccccc1C12CNCC1C2 (stereo unspecified)
a: > 100 mg/kg

q: So what ED50 did CN1CC2CC2(c2ccc(Cl)cc2)C1.Cl (stereo unspecified) get with Rattus norvegicus?
a: > 50 mg/kg

---

test system: Rattus norvegicus; assay: Analgesic activity for inflamed rat-paw reversal of abnormal (three legged) gait expressed as ED50 (po).; assay type: functional; conditions: Rattus norvegicus, po; read-out: ED50
quantity: ED50

q: Quick one: ED50 of C=CCN1CC2CC2(c2ccc(C)cc2)C1.Cl (centres undefined) ?
a: > 50 mg/kg

q: Recorded ED50 for `CC(=O)Oc1ccccc1C(=O)O` , please?
a: 74 mg/kg

q: I have this compound here, Cl.FC(F)(F)c1cc(C23CNCC2C3)ccc1Cl (centres undefined) , and I need its recorded ED50.
a: 177 mg/kg

q: Which value of ED50 has been reported for Cl.FC(F)(F)c1cccc(C23CNCC2C3)c1 (centres undefined) in the records?
a: 28 mg/kg

q: I would be grateful if you could share the reported ED50 for Cl.Fc1cccc(C23CNCC2C3)c1 (centres undefined) .
a: > 50 mg/kg

q: # ED50 lookup, item CCCCCCN1CC2CC2(c2ccc(C)cc2)C1.Cl (centres undefined)
a: > 50 mg/kg

q: Need ED50, item Cl.Clc1ccc(C23CNCC2C3)cc1Cl (centres undefined)
a: 141 mg/kg

q: Data request, read-out ED50, for Cl.Oc1ccc(C23CNCC2C3)cc1 (centres undefined)
a: > 200 mg/kg

q: Return reported ED50; argument: COc1ccc2c3c1O[C@H]1[C@@H](O)C=C[C@H]4[C@@H](C2)N(C)CC[C@@]341.COc1ccc2c3c1O[C@H]1[C@@H](O)C=C[C@H]4[C@@H](C2)N(C)CC[C@@]341.O.O=P(O)(O)O.O=P(O)(O)O [CODEINE PHOSPHATE]
a: 51 mg/kg

---

test system: Rattus norvegicus; assay: Analgesic activity for inflamed rat-paw reversal of abnormal (three legged) gait expressed as ED50 (po).; type: functional; settings: Rattus norvegicus, po; read-out: ED50
quantity: ED50 (mg/kg)
State the answer as a number, implicitly in mg/kg.

[[record]]
compound = "Cl.FC(F)(F)c1ccc(C23CNCC2C3)cc1 (stereo not given)"
readout_unit = "mg/kg"
assay_result = 38


q: I am curious: what ED50 value has been reported for COc1cccc(C23CNCC2C3)c1.Cl (stereo not given) ?
a: 177

---

system: Rattus norvegicus; test: Analgesic activity for inflamed rat-paw reversal of abnormal (three legged) gait expressed as ED50 (po).; format: functional; conditions: Rattus norvegicus, po; read-out: ED50
quantity: ED50

[[record]]
molecule = "Cc1cccc(C23CNCC2C3)c1.Cl (stereo not drawn)"
assay_result = "> 50 mg/kg"


q: Need ED50, item Cl.Fc1ccc(C23CNCC2C3)cc1 (stereo not drawn)
a: > 50 mg/kg

q: Request the reported ED50 associated with Cc1ccc(C23CC2CN(CC2CC2)C3)cc1.Cl (stereo not drawn)
a: > 50 mg/kg
